tested on: OPM2 cells; test: cells; type: cell-based, human; details: Homo sapiens, OPM-2, Parental; read-out: Inhibition of Proliferation of OPM2 Cells IC50
Result Type: pIC50
// field semantics: pIC50 = negative decimal log of concentration (mol/L)

Fill in: pIC50 of Nc1cccc2c1C(=O)N(C1CCC(=O)NC1=O)C2=O (stereo not shown) [Pomalidomide, pomalidomide, reference compound] is ___
7.19

---

test system: OPM2 cells; assay: cells; assay type: cell-based, human; conditions: Homo sapiens, OPM-2, overexpressing Aiolos; read-out: Inhibition of Proliferation of OPM2 Cells IC50
Result Type: pIC50
API: returns pIC50 as number; meaning -log10 of concentration in mol/L.

Look at this molecule and give its reported pIC50. N#Cc1ccc(N2CCN(Cc3ccc(COc4cccc5c4CN([C@H]4CCC(=O)NC4=O)C5=O)cc3)CC2)c(F)c1
10.10

Can you look up the measured pIC50 of Nc1cccc2c1C(=O)N(C1CCC(=O)NC1=O)C2=O (centres unmarked) [Pomalidomide, pomalidomide, reference compound] for me?
7.05
